IC50, AmpC from Escherichia coli (AmpCEC) (Escherichia coli, UniProt P00811): measured values

| molecule | IC50, nM |
| --- | --- |
| O=C(O)c1cccc2c1OB(O)C(SCc1ccccc1)C2 (centres unmarked) | 29.5 |
| NCCN[C@H]1CC[C@H](CC(=O)N[C@H]2Cc3cccc(C(=O)O)c3OB2O)CC1 | 29.5 |

----------
# subjectOfTest: AmpC from Escherichia coli (AmpCEC) (Escherichia coli, UniProt P00811)
# Construct: made in house; host or cells: E. coli W3110 (pAD7 vector)
# Sequence (P00811 20-377): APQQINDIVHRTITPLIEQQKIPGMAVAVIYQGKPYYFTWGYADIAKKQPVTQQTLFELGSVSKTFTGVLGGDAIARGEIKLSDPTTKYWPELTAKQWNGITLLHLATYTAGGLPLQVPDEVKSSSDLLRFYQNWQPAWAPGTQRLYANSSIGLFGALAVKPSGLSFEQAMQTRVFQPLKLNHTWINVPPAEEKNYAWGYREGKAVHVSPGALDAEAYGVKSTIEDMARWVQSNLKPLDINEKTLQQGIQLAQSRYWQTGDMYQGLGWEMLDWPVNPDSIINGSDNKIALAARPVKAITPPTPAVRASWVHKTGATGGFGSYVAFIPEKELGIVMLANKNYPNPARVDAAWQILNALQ
# Format: biochemical
# testConditions: half-life of the enzyme-inhibitor complex, ln2/koff
Consider the following molecules and their measured t1/2 readings.

| molecule | subjectOfTest | t1/2 (min) |
| --- | --- | --- |
| NCCN[C@H]1CC[C@H](CC(=O)N[C@H]2Cc3cccc(C(=O)O)c3OB2O)CC1 | AmpC from Escherichia coli (AmpCEC) (Escherichia coli, UniProt P00811) | 4.55 |
| O=C(O)c1cccc2c1OB(O)C(SCc1ccccc1)C2 (stereo not shown) | AmpC from Escherichia coli (AmpCEC) (Escherichia coli, UniProt P00811) | 0.55 |
| NCc1ccc(C(=O)N[C@H]2Cc3cccc(C(=O)O)c3OB2O)cc1 | AmpC from Escherichia coli (AmpCEC) (Escherichia coli, UniProt P00811) | 4.18 |
| O=C(O)C[C@@H]1CC[C@H](NC(=O)Cc2cccs2)B(O)O1 | AmpC from Escherichia coli (AmpCEC) (Escherichia coli, UniProt P00811) | 16.8 |

----------
Below, each of the compounds is paired with its reported kinact/KI value.
# subjectOfTest: AmpC from Escherichia coli (AmpCEC) (Escherichia coli, UniProt P00811)
# Construct: made in house; host or cells: E. coli W3110 (pAD7 vector)
# assayDetails: Steady-state competition kinetics of AmpCEC (100 nM) with fluorescent substrate FC-5 (Kiapp, k2/K)
# Type: biochemical
# testConditions: pH 7.5, read-out: k2/K, 100 nM AmpCEC, 5 µM FC-5; second-order rate constant

| compound | kinact/KI (M⁻¹ s⁻¹) |
| --- | --- |
| NCCN[C@H]1CC[C@H](CC(=O)N[C@H]2Cc3cccc(C(=O)O)c3OB2O)CC1 | 85600 |
| NCc1ccc(C(=O)N[C@H]2Cc3cccc(C(=O)O)c3OB2O)cc1 | 81000 |
| O=C(O)c1cccc2c1OB(O)C(SCc1ccccc1)C2 (stereo not shown) | 224000 |
